Reported growth inhibition values follow for various molecules
Test system: HGGX6 (H3.3 G34R paediatric high-grade glioma line)
assay: growth inhibition (% activity, log2 RLU normalised to DMSO / staurosporine); higher = more growth inhibition
assay setup: 33 µM
measure: growth inhibition (%)

molecule=C[C@H](N[C@@H](CCc1ccccc1)C(=O)O)C(=O)N1CCC[C@H]1C(=O)O measurement_units=% result_number=-3.59
molecule=Cc1cc(-n2c(=O)[nH]c(=O)n(C)c2=O)ccc1Oc1ccc(SC(F)(F)F)cc1 measurement_units=% result_number=2.18
molecule="C=Cc1c(C)c2cc3nc(cc4[nH]c(cc5nc(cc1[nH]2)C(C)=C5CCC(=O)O)c(CCC(=O)OC)c4C)C1(C)C3=CC=C(C(=O)OC)C1C(=O)OC (centres undefined)" measurement_units=% result_number=0.712
molecule=CC=CC1=C(C(=O)O)N2C(=O)[C@@H](NC(=O)[C@H](N)c3ccc(O)cc3)[C@H]2SC1 measurement_units=% result_number=1.84

* * *

Tested on: SUDIPGXIII (diffuse intrinsic pontine glioma line)
assay: growth inhibition (% activity, log2 RLU normalised to DMSO / staurosporine); higher = more growth inhibition
assay setup: 33 µM
measure: growth inhibition (%)

molecule=CCOC(=O)C1=C[C@]2(CC)CCCN3CCc4c(n1c1ccccc41)[C@@H]32 measure="growth inhibition" result_number=3.3
molecule="OC(CCN1CCCCC1)(c1ccccc1)C1CC2C=CC1C2 (stereo not given)" measure="growth inhibition" result_number=1
molecule=CS(=O)(=O)OCCCCOS(C)(=O)=O measure="growth inhibition" result_number=0.839
molecule=CC1(C)O[C@@H]2C[C@H]3[C@@H]4CCC5=CC(=O)C=C[C@]5(C)[C@@]4(F)[C@@H](O)C[C@]3(C)[C@]2(C(=O)CO)O1 measure="growth inhibition" result_number=0.942
molecule=CCCCNC(=O)NS(=O)(=O)c1ccc(C)cc1 measure="growth inhibition" result_number=-0.858
molecule=CN(CCOc1ccc(NS(C)(=O)=O)cc1)CCc1ccc(NS(C)(=O)=O)cc1 measure="growth inhibition" result_number=0.844
molecule=C[C@]12CC[C@H](O)CC1=CC[C@@H]1[C@@H]2CC[C@]2(C)C(c3cccnc3)=CC[C@@H]12 measure="growth inhibition" result_number=-1.17
molecule="CC1=C(CC(=O)O)c2cc(F)ccc2/C1=C\\c1ccc([S+](C)[O-])cc1 (stereo not given)" measure="growth inhibition" result_number=0.292
molecule=OCC(CO)N[C@H]1C[C@](O)(CO)[C@@H](O)[C@H](O)[C@H]1O measure="growth inhibition" result_number=0.0745
molecule=Nc1nc(NC2CC2)c2ncn([C@H]3C=C[C@@H](CO)C3)c2n1 measure="growth inhibition" result_number=0.173

* * *

Reported growth inhibition values follow for various compounds
System: DIPGX9 (diffuse intrinsic pontine glioma line)
assay: growth inhibition (% activity, log2 RLU normalised to DMSO / staurosporine); higher = more growth inhibition
assay setup: 33 µM
measure: growth inhibition

compound=CNC(=O)c1cc(Oc2ccc(NC(=O)Nc3ccc(Cl)c(C(F)(F)F)c3)c(F)c2)ccn1 measure="growth inhibition" result=2.56%
compound="Cc1ccccc1C(=O)Nc1ccc(C(=O)N2CCCC(O)c3cc(Cl)ccc32)c(C)c1 (stereo unspecified)" measure="growth inhibition" result=1.96%
compound="COc1ccccc1OCCNCC(O)COc1cccc2[nH]c3ccccc3c12 (stereo unspecified)" measure="growth inhibition" result=3.73%
compound=Nc1nc(N)nc(-c2cc(Cl)ccc2Cl)n1 measure="growth inhibition" result=-0.993%
compound=C[C@@](Cc1ccc(O)c(O)c1)(NN)C(=O)O measure="growth inhibition" result=2.31%
compound=CCCCOc1ccc(OCCCN2CCOCC2)cc1 measure="growth inhibition" result=1.12%
compound=Nc1ncnc2c1ncn2[C@@H]1O[C@H](COP(=O)(O)OP(=O)(O)OP(=O)(O)O)[C@@H](O)[C@H]1O measure="growth inhibition" result=2.77%
compound="CCn1cc(C(=O)O)c(=O)c2cc(F)c(N3CCNC(C)C3)c(F)c21 (stereo unspecified)" measure="growth inhibition" result=-2.66%
compound=O=C(O)c1cn(-c2ccc(F)cc2)c2cc(N3CCNCC3)c(F)cc2c1=O measure="growth inhibition" result=2.37%
compound=COC(=O)Nc1nc2cc(C(=O)c3ccc(F)cc3)ccc2[nH]1 measure="growth inhibition" result=6.48%
compound="CC(C)(C)NCC(O)c1ccc(O)c(CO)c1 (stereo unspecified)" measure="growth inhibition" result=-1.85%
